Molecular target: SIRT1 (Homo sapiens)
Sequence (Q96EB6 whole entry): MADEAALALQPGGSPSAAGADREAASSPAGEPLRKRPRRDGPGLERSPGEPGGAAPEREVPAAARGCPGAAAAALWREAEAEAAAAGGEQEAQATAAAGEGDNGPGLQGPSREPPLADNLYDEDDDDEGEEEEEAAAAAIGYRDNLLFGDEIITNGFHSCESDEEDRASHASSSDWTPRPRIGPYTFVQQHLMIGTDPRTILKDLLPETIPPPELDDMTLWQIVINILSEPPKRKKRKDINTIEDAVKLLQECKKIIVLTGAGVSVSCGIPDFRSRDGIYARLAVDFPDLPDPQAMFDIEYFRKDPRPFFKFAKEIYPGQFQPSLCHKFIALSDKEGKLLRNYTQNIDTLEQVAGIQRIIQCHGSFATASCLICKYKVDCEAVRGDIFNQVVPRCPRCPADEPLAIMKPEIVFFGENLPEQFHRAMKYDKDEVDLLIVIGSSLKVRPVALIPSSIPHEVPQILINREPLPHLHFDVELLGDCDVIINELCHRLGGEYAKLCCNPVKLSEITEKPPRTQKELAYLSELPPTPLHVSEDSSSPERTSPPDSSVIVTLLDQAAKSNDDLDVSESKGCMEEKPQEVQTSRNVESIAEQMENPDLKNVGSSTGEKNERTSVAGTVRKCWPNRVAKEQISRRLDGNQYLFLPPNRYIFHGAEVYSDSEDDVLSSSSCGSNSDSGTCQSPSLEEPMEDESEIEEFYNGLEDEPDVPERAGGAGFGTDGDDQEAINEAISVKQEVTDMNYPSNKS
Experiment: Mass spectrometry based SIRT1 deacetylase activation assay (acetylated p53-derived peptide substrate)
Type: biochemical
Settings: 0.5 μM peptide substrate, 120 μM βNAD+, 10 nM SIRT1, 25 min at 25° C., read-out: EC1.5
Excerpt: A mass spectrometry based assay was used to identify modulators of SIRT1 activity. The mass spectrometry based assay utilizes a peptide having 20 amino acid residues as follows: Ac-EE-K(biotin)-GQSTSSHSK(Ac)NleSTEG-K(5TMR)-EE-NH2 (SEQ ID NO: 1) wherein K(Ac) is an acetylated lysine residue and Nle is a norleucine. The peptide is labeled with the fluorophore 5TMR (excitation 540 nm/emission 580 nm) at the C-terminus. The sequence of the peptide substrate is based on p53 with several modifications. […]

- molecule: "O=C(Nc1ccccn1)c1cccc2[nH]c(-c3ccc(OCC(O)CO)cc3C(F)F)nc12 (stereo not shown)"
  EC1.5: "< 1000 nM"
- molecule: "C[C@@H]1CN(c2cccc(-c3nc4c(C(=O)Nc5nccs5)cccc4[nH]3)c2)C[C@H](C)O1"
  EC1.5: "< 1000 nM"
- molecule: "O=C(Nc1ccccn1)c1cccc2[nH]c(-c3cc(Cl)ccc3C(F)(F)F)nc12"
  EC1.5: "> 25000 nM"
- molecule: "O=C(Nc1cccnc1)c1cccc2[nH]c(-c3ccc(N4CC[C@H](F)C4)cc3C(F)(F)F)nc12"
  EC1.5: "< 1000 nM"
- molecule: "Cc1cc(NC(=O)c2cccc3[nH]c(-c4ccccc4C(F)(F)F)nc23)no1"
  EC1.5: "< 1000 nM"
- molecule: "Cc1nc(NC(=O)c2cccc3[nH]c(-c4ccc(N5CCOCC5)cc4C(F)(F)F)nc23)sc1C"
  EC1.5: "< 1000 nM"
- molecule: "O=C(Nc1ccccn1)c1cccc2[nH]c(-c3cccc(OC4CCNC4)c3)nc12 (stereo not shown)"
  EC1.5: "1000 to 25000 nM"
- molecule: "O=C(Nc1ccccn1)c1cccc2[nH]c(-c3ccccc3OCCN3CCNCC3)nc12"
  EC1.5: "1000 to 25000 nM"
- molecule: "O=C(Nc1ccncn1)c1cccc2[nH]c(-c3ccc(N4CCOCC4)cc3C(F)(F)F)nc12"
  EC1.5: "< 1000 nM"
- molecule: "O=C(Nc1cccnn1)c1cccc2[nH]c(-c3cc(F)ccc3C(F)(F)F)nc12"
  EC1.5: "< 1000 nM"
- molecule: "O=C(Nc1nccs1)c1cccc2[nH]c(-c3ccccc3OCCN3CCNCC3)nc12"
  EC1.5: "1000 to 25000 nM"
- molecule: "Cc1nc(NC(=O)c2cccc3[nH]c(-c4cnc5c(c4)OCCN5C)nc23)sc1C"
  EC1.5: "< 1000 nM"
- molecule: "O=C(Nc1cccc(OC2CCNCC2)c1)c1cccc2[nH]c(-c3cc(F)ccc3C(F)(F)F)nc12"
  EC1.5: "< 1000 nM"
- molecule: "CN1CCOc2cc(-c3nc4c(C(=O)Nc5ccccn5)cccc4[nH]3)cnc21"
  EC1.5: "> 25000 nM"
- molecule: "C[C@@H]1CN(CCOc2ccccc2-c2nc3c(C(=O)Nc4nccs4)cccc3[nH]2)C[C@H](C)O1"
  EC1.5: "1000 to 25000 nM"
- molecule: "Cc1cc(NC(=O)c2cccc3[nH]c(-c4cc(F)ccc4C(F)(F)F)nc23)no1"
  EC1.5: "< 1000 nM"
